system_under_test: KRas^G12V (Homo sapiens, UniProt P01116, G12V)
Construct: Biotinylated KRas (corresponding to amino acids 1-169, produced at Accelegan Inc.); biotin (biotinylated); purchased Accelegan Inc
Sequence (P01116 1-169 isoform P01116-2 G12V): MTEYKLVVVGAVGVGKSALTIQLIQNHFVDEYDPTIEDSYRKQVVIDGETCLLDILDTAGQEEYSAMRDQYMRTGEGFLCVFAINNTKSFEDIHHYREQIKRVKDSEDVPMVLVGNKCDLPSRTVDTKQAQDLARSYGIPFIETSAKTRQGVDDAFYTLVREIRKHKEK
measurement_description: KRas binding assay (TR-FRET tracer displacement), KRas G12V
reported_metric: IC50

- molecule: "CCc1c(F)ccc2cc(O)cc(-c3ncc4c(N5CCCc6ncncc6C5)nc(OC[C@@]56CCCN5C[C@H](F)C6)nc4c3F)c12"
  IC50: "11 nM"
- molecule: "CCc1c(F)ccc2cc(O)cc(-c3ncc4c(N5C[C@@H]6OCCN[C@@H]6C5)nc(OC[C@@]56CCCN5C[C@H](F)C6)nc4c3F)c12"
  IC50: "512 nM"
- molecule: "CCc1c(F)ccc2cc(O)cc(-c3ncc4c(N5CC6CNC(CO)C6C5)nc(OC[C@@]56CCCN5C[C@H](F)C6)nc4c3F)c12 (stereo partly drawn)"
  IC50: "34 nM"

Task item: Output IC50 of CCc1c(F)ccc2cc(O)cc(-c3ncc4c(N5CCC[C@@](C)(O)C5)nc(OC[C@]56CCCN5[C@H](COC)CC6)nc4c3F)c12
Reply: < 2 nM

Task item: Output IC50 of CCc1c(F)ccc2cc(O)cc(-c3ncc4c(N5CCC(n6cnnc6)C5)nc(OC[C@@]56CCCN5C[C@H](F)C6)nc4c3F)c12 (stereo partly drawn)
Reply: 16 nM

Task item: Output IC50 of Oc1cc(-c2ncc3c(N4C[C@@H]5C[C@H](C4)[C@H](O)C5)nc(OC[C@@]45CCCN4C[C@H](F)C5)nc3c2F)c2cccc(F)c2c1
Reply: 12 nM

---

system_under_test: KRas^G12C (Homo sapiens, UniProt P01116, G12C)
Construct: Biotinylated KRas (corresponding to amino acids 1-169, produced at Accelegan Inc.); biotin (biotinylated); purchased Accelegan Inc
Sequence (P01116 1-169 isoform P01116-2 G12C): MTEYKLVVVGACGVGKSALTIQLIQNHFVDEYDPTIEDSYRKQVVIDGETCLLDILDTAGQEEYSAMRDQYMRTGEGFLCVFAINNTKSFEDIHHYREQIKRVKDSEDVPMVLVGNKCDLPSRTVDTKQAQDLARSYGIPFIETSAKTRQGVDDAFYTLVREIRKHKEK
measurement_description: KRas binding assay (TR-FRET tracer displacement), KRas G12C
conditions: TR-FRET tracer displacement, KRas G12C
reported_metric: IC50 (nM)
Give your result in nM as a bare value.

- compound: "Oc1cc(-c2ncc3c(N4C[C@@H]5C[C@H](C4)[C@H](O)C5)nc(OC[C@@]45CCCN4C[C@H](F)C5)nc3c2F)c2ccccc2c1Cl"
  system_under_test: "KRas^G12C (Homo sapiens, UniProt P01116, G12C)"
  IC50 (nM): 2390
- compound: "Cc1cc2[nH]ncc2c(-c2ncc3c(N4CCCC5(CC(O)C5)C4)nc(OCC45CCCN4CCC5)nc3c2F)c1C (centres unmarked)"
  system_under_test: "KRas^G12C (Homo sapiens, UniProt P01116, G12C)"
  IC50 (nM): 421
- compound: "Oc1cc2ccccc2c(-c2ncc3c(N4C[C@@H]5C[C@H](C4)[C@H](O)C5)nc(OC[C@@]45CCCN4C[C@H](F)C5)nc3c2F)c1F"
  system_under_test: "KRas^G12C (Homo sapiens, UniProt P01116, G12C)"
  IC50 (nM): 165
- compound: "Oc1cc(-c2ncc3c(N4C[C@@H]5C[C@H](C4)[C@H](O)C5)nc(OC[C@@]45CCCN4C[C@H](F)C5)nc3c2F)c2ccc(F)cc2c1"
  system_under_test: "KRas^G12C (Homo sapiens, UniProt P01116, G12C)"
  IC50 (nM): 29
- compound: "O=C1NCC2(CCCN(c3nc(OCC45CCCN4CCC5)nc4c(F)c(-c5c6ccccc6cc6[nH]ncc56)ncc34)C2)N1 (centres unmarked)"
  system_under_test: "KRas^G12C (Homo sapiens, UniProt P01116, G12C)"
  IC50 (nM): 12
- compound: "CCc1c(F)ccc2cc(O)cc(-c3ncc4c(N5C[C@@H]6C[C@H](C5)[C@H](O)C6)nc(OCC56CC(F)CN5CC(F)C6)nc4c3F)c12 (some centres unmarked)"
  system_under_test: "KRas^G12C (Homo sapiens, UniProt P01116, G12C)"
  IC50 (nM): 7

Task item: Output IC50 of Cc1cc2[nH]nnc2c(-c2ncc3c(N4CCCC5(CNC(=O)N5)C4)nc(OCC45CCCN4CCC5)nc3c2F)c1C (centres unmarked)
Reply: 2060

Task item: Output IC50 of CCc1c(F)ccc2cc(O)cc(-c3ncc4c(N5C[C@@H]6C[C@H](C5)[C@H](O)C6)nc(OC[C@@]56CCCN5C[C@@H](F)C6)nc4c3F)c12
Reply: 7
